measured on: full-length human RORγt (Homo sapiens (Human))
assay: RORγt (full-length human) reporter assay, conditions A or B, HEK293T cells
Type: cell-based
test conditions: RORγt (FL) Reporter Assay A or B, IC50, HEK293T cells
Assignment: determine reported pIC50 for the given compounds.
# pIC50 = -log10(concentration in molar units)

Query :: Specify reported pIC50 for the compound shown: CCn1nc(C(=O)NC[C@]2(CO)CC[C@@H](S(C)(=O)=O)CC2)c(Cl)c1-c1ccc(N[C@H](C)C(F)(F)F)cc1OC (relative stereo) [Example 93]
Result :: 7.52

Query :: Output measured pIC50 for this item: CCn1nc(C(=O)NC[C@H]2CC[C@H](S(C)(=O)=O)CC2)c(Cl)c1-c1ccc(N[C@H](C)C(F)(F)F)cc1 [Example 194]
Result :: 6.92

Query :: Quickly give me recorded pIC50 for CCn1nc(C(=O)NC[C@]2(O)CC[C@@H](S(C)(=O)=O)CC2)c(Cl)c1-c1ccc(C(O)(C(F)(F)F)C(F)(F)F)cc1OC(F)F [Example 117]
Result :: 8.38

---

measured on: full-length human RORγt (Homo sapiens (Human), UniProt P51449)
Sequence (P51449 other isoform, or with tags, fused parts or gaps): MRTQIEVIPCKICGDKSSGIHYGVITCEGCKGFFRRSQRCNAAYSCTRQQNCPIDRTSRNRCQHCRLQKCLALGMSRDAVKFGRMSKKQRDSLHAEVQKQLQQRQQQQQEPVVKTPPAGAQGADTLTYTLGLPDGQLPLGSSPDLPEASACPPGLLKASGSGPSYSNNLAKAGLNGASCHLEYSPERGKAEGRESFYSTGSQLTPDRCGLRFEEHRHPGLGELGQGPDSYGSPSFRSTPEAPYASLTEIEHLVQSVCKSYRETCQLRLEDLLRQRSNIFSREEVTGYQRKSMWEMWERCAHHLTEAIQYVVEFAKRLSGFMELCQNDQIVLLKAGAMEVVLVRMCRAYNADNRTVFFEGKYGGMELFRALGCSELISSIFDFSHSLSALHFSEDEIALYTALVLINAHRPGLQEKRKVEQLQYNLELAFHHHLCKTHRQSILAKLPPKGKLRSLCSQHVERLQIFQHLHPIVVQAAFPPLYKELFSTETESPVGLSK
assay: RORγt (full-length human) reporter assay, conditions A or B, HEK293T cells
Format: cell-based
test conditions: HEK-293T; 2 μM compound concentration; read-out: RORγt (FL) Reporter Assay A or B, % inhibition
measured attribute: inhibition at 2 µM

Query :: Give me measured inhibition at 2 µM, please, for this molecule: CCn1nc(C(=O)NC[C@H]2CC[C@H](S(C)(=O)=O)CC2)c(Cl)c1-c1ccc(OC(C)C(F)(F)F)cc1OC (stereo partly drawn)
Result :: 81%

Query :: Recall and state the measured inhibition at 2 µM for CCn1nc(C(=O)NC[C@]2(O)CC[C@@H](S(C)(=O)=O)CC2)c(Cl)c1-c1ccc(CCC(F)(F)F)cc1C(F)(F)F .
Result :: 5%

Query :: State, in one line, measured inhibition at 2 µM of COc1cc(N[C@H](C)C(F)(F)F)ccc1-c1c(Cl)c(C(=O)NC[C@H]2CC[C@H](S(C)(=O)=O)CC2)nn1CC(C)C
Result :: 103%

---

measured on: full-length human RORγt (Homo sapiens (Human), UniProt P51449)
assay: RORγt (full-length human) reporter assay, conditions A or B, HEK293T cells
Type: cell-based
test conditions: 3 μM compound concentration (footnote *)
Marks after values point to notes of the source that are not given here.
Please go through the items and note down their RORγt (FL) Reporter Assay A or B, % inhibition.

Query :: Give a short answer stating reported RORγt (FL) Reporter Assay A or B, % inhibition for CCn1nc(C(=O)NC[C@H]2CC[C@H](S(=O)(=O)NC=O)CC2)c(Cl)c1-c1ccc(CC(C)(C)C(F)(F)F)cc1OC(F)F [Example 67] .
Result :: 118* %

Query :: Look up and report measured RORγt (FL) Reporter Assay A or B, % inhibition for this entry: CCn1nc(C(=O)NC[C@H]2CC[C@H](S(C)(=O)=O)CC2)c(Cl)c1-c1ccc(CCC(F)(F)F)cc1OC(F)F [Example 222]
Result :: 101* %

Query :: Provide RORγt (FL) Reporter Assay A or B, % inhibition value for the following molecule: CCC(=O)NS(=O)(=O)[C@H]1CC[C@H](CNC(=O)c2nn(CC)c(-c3ccc(CC(C)(C)C(F)(F)F)cc3OC(F)F)c2Cl)CC1 [Example 70]
Result :: 103* %

Query :: Assign RORγt (FL) Reporter Assay A or B, % inhibition to the following record: CCn1nc(C(=O)NC[C@H]2CC[C@H](S(=O)(=O)NC(=O)NC)CC2)c(Cl)c1-c1ccc(CC(C)(C)C(F)(F)F)cc1OC(F)F [Example 71]
Result :: 114* %

Query :: Provide one value: measured RORγt (FL) Reporter Assay A or B, % inhibition of CCn1nc(C(=O)NC[C@H]2CC[C@H](S(=O)(=O)NC(N)=O)CC2)c(Cl)c1-c1ccc(CC(C)(C)C(F)(F)F)cc1OC(F)F [Example 69]
Result :: 100* %

Query :: Return value of RORγt (FL) Reporter Assay A or B, % inhibition for input CCn1nc(C(=O)NC[C@H]2CC[C@H](S(=O)(=O)NC(C)=O)CC2)c(Cl)c1-c1ccc(CC(C)(C)C(F)(F)F)cc1OC(F)F [Example 68] , no commentary.
Result :: 97* %

---

measured on: UniProt P51449
assay: RORγt (full-length human) reporter assay, conditions A or B, HEK293T cells
Format: cell-based
test conditions: HEK-293T; 3 μM compound concentration (footnote *); read-out: RORγt (FL) Reporter Assay A or B, % inhibition
measured attribute: inhibition at 3 µM
Answer format reminder: number followed by unit.

Query :: Quick one: give measured inhibition at 3 µM for CCn1nc(C(=O)NC[C@]2(O)CC[C@@H](S(C)(=O)=O)CC2)c(Cl)c1-c1ccc(CCC(F)(F)F)cc1OC(F)F
Result :: 90%

Query :: Look up inhibition at 3 µM of CC(C)(Cc1ccc(-c2c(Cl)c(C(=O)NC[C@]3(O)CC[C@@H](S(C)(=O)=O)CC3)nn2CCCC#N)c(OC(F)F)c1)C(F)(F)F and report it.
Result :: 78%

Query :: Given CCn1nc(C(=O)NC[C@]2(O)CC[C@@H](S(C)(=O)=O)CC2)c(Cl)c1-c1ccc([C@](C)(O)CC(F)(F)F)cc1OC(F)F (single isomer, unassigned) , respond with its inhibition at 3 µM.
Result :: 49%

Query :: Return the recorded inhibition at 3 µM value; entry: CCn1nc(C(=O)NC[C@]2(O)CC[C@@H](S(C)(=O)=O)C[C@H]2O)c(Cl)c1-c1ccc(C[C@@H](C)C(F)(F)F)cc1OC(F)F (stereo in doubt)
Result :: 102%

Query :: Read off the recorded inhibition at 3 µM for CCn1nc(C(=O)NC[C@]2(O)CC[C@@H](S(C)(=O)=O)CC2)c(Cl)c1-c1ccc([C@](C)(O)CCC(F)(F)F)cc1OC(F)F (relative stereo)
Result :: 107%

Query :: Look up inhibition at 3 µM of Cc1c(C(=O)NC[C@]2(O)CC[C@@H](S(C)(=O)=O)CC2)nn(CC(C)(C)O)c1-c1ccc(CC(C)(C)C(F)(F)F)cc1OC(F)F and report it.
Result :: 106%

---

measured on: full-length human RORγt (Homo sapiens (Human), UniProt P51449)
assay: RORγt (full-length human) reporter assay, conditions A or B, HEK293T cells
Type: cell-based
test conditions: RORγt (FL) Reporter Assay A or B, IC50, HEK293T cells
Counter-ions that a name gives are not always drawn.
measured attribute: IC50

Query :: # return recorded IC50 for entry CCc1cc(N[C@H](C)C(F)(F)F)ccc1-c1c(Cl)c(C(=O)NC[C@H]2CC[C@H](S(C)(=O)=O)CC2)nn1CC
Result :: 31 nM

Query :: Tell me IC50 reported for CCn1nc(C(=O)NC[C@]2(C(=O)O)CC[C@H](S(C)(=O)=O)CC2)c(Cl)c1-c1ccc(CC(C)(C)C(F)(F)F)cc1OC(F)F
Result :: 830 nM

Query :: Indicate its recorded IC50; the molecule in question is CCn1nc(C(=O)NC[C@]2(O)CC[C@@H](S(C)(=O)=O)CC2)c(Cl)c1-c1ccc(CC(C)C(F)(F)F)cc1OC(F)(F)F (some centres unmarked)
Result :: 22 nM

Query :: Please list IC50 recorded for the molecule CCn1nc(C(=O)NC[C@]2(O)CC[C@@H](S(C)(=O)=O)CC2)c(Cl)c1-c1ccc([C@](C)(O)CC(F)(F)F)cc1OC(F)F (single isomer, unassigned)
Result :: 220 nM

Query :: Supply IC50 value. Item: CCn1nc(C(=O)NC[C@@H]2CC[C@@H](S(C)(=O)=O)C[NH+]2CC(=O)ON)c(Cl)c1-c1ccc(CC(C)(C)C(F)(F)F)cc1OC(F)F (stereo in doubt) [Example 63, Trifluoroacetic Acid Salt]
Result :: 8 nM

Query :: For COc1cc(N[C@H](C)C(F)(F)F)ccc1-c1c(Cl)c(C(=O)NC[C@H]2CC[C@H](S(C)(=O)=O)CC2)nn1CC(C)(C)O , write its IC50.
Result :: 850 nM

Query :: Report measured IC50; entry is CCn1nc(C(=O)NC[C@H]2CC[C@H](S(C)(=O)=O)CC2)c(C(C)C)c1-c1ccc(N[C@H](C)C(F)(F)F)cc1OC
Result :: 140 nM

Query :: Query IC50 for CCn1nc(C(=O)NC[C@H]2CC[C@H](S(C)(=O)=O)CC2)c(C)c1-c1ccc(CCC(F)(F)F)cc1OC
Result :: 38 nM

Query :: # return recorded IC50 for input CC(C)(O)Cn1nc(C(=O)NC[C@]2(O)CC[C@@H](S(C)(=O)=O)CC2)c(Cl)c1-c1ccc(CC(C)(C)C(F)(F)F)cc1OC(F)F
Result :: 31 nM

Query :: Give recorded IC50. CCS(=O)(=O)[C@H]1CC[C@H](CNC(=O)c2nn(C)c(-c3ccc(CC(C)(C)C(F)(F)F)cc3OC(F)F)c2Cl)CC1
Result :: 20 nM

Query :: Provide measured IC50 value, entry: CCCn1nc(C(=O)NC[C@H]2CC[C@H](S(C)(=O)=O)CC2)c(Cl)c1-c1ccc(C[C@H](C)C(F)(F)F)cc1OC (single isomer, unassigned)
Result :: 8 nM
